Test system: brain dendritic spines
Test: Brain dendritic spines in laboratory animals injected intraperitoneally with test compound
Assay type: in vivo
Settings: intraperitoneal injection after 6 weeks of diet
measured-endpoint: level of brain dendritic spines in laboratory animals

{"compound": "O=C(Cn1c(=O)ccn(C2OC(COP(=O)(O)OP(=O)(O)O)C(O)C2O)c1=O)c1ccccc1 (stereo not drawn)", "reported-measurement": "effective"}
{"compound": "O=c1ccn([C@@H]2O[C@H](COP(=O)([O-])OP(=O)([O-])OP(=O)([O-])[O-])[C@@H](O)[C@H]2O)c(=S)[nH]1.[Na+].[Na+].[Na+].[Na+] [2-ThioUTP tetrasodium salt]", "reported-measurement": "effective"}
{"compound": "Nc1ccn([C@H]2C[C@H](O)[C@@H](COP(=O)(O)OP(=O)(O)OP(=O)(O)OP(=O)(O)OC[C@H]3O[C@@H](n4ccc(=O)[nH]c4=O)[C@H](O)[C@@H]3O)O2)c(=O)n1", "reported-measurement": "effective"}
